- system.tested: VIM-1 (Pseudomonas aeruginosa (strain ATCC 15692 / DSM 22644 / CIP 104116 / JCM 14847 / LMG 12228 / 1C / PRS 101 / PAO1), UniProt A0A0F7KYQ8)
- experiment: Enzyme activity: determination of IC50, fluorescence assay with CCF2-FA substrate (VIM-1)
- Format: biochemical
- assay.conditions: fluorescence assay with CCF2-FA substrate; read-out: VIM-1 IC50
recorded.endpoint: IC50 (nM)

NC1CCC2CN(c3ccc(C(F)(F)F)c(S(N)(=O)=O)c3-c3nnn[nH]3)CC2C1 (stereo not shown) [Example 767]
4.58
NS(=O)(=O)c1cccc(COc2ccccc2)c1-c1nnn[nH]1 [Example 142]
419
Cn1cc2cc(-c3cccc(S(N)(=O)=O)c3-c3nnn[nH]3)ccc2n1 [Example 127]
84.2
NS(=O)(=O)c1cccc(-c2ccc(C(O)C(F)F)cc2)c1-c1nnn[nH]1 (stereo not shown) [Example 24]
124

----------
- system.tested: UniProt:P52699
- experiment: biochemical
- Format: biochemical
- assay.conditions: IMP-1 enzyme, CCF2-FA fluorescence assay; read-out: IMP-1 IC50
Each entry below lists one item and its recorded IC50 value.
recorded.endpoint: IC50 (µM)

NS(=O)(=O)c1cccc(-c2ccc(CNCCc3nc[nH]n3)cc2)c1-c1nnn[nH]1
0.0754
Cc1cnc(-c2cccc(S(N)(=O)=O)c2-c2nn[nH]n2)cn1
0.134
NC(=O)C1CN(Cc2ccc(-c3cccc(S(N)(=O)=O)c3-c3nnn[nH]3)cc2)C1
0.116
NS(=O)(=O)c1c(Br)ccc(-c2ccc(C3CCNCC3)cc2)c1-c1nnn[nH]1
0.0101
NS(=O)(=O)c1cccc(-c2ccn3cncc3c2)c1-c1nn[nH]n1
0.479
Cc1ccc(-c2cc(-c3cccc(C(N)=O)c3)cc(S(N)(=O)=O)c2-c2nn[nH]n2)cc1
0.0161
COc1ccc(S(N)(=O)=O)c(-c2nn[nH]n2)c1
46.3
NS(=O)(=O)c1c(C(F)(F)F)ccc(-c2cccn3cncc23)c1-c1nnn[nH]1
0.00498
NS(=O)(=O)c1c(CC2CCNC2)ccc(-c2ccc(C3CCNCC3)cc2)c1-c1nn[nH]n1 (stereo not shown)
0.0135
NS(=O)(=O)c1cccc(-c2ccc(CN3CCC3C(=O)O)cc2)c1-c1nnn[nH]1 (stereo not shown)
0.262
NS(=O)(=O)c1c(Cc2ccccc2)ccc(-c2ccc(C3CCNCC3)cc2)c1-c1nnn[nH]1
0.00172
NS(=O)(=O)c1cccc(-c2ccccc2O)c1-c1nn[nH]n1
0.37
NS(=O)(=O)c1cccc(-c2ccc(CNC3CCC(=O)NC3)cc2)c1-c1nnn[nH]1 (stereo not shown)
0.0976
Cc1ccc(-c2ccc(Br)c(S(N)(=O)=O)c2-c2nn[nH]n2)cc1
0.002
N#Cc1nc2c(-c3ccc(C(F)(F)F)c(S(N)(=O)=O)c3-c3nnn[nH]3)cccc2s1
0.00212
C[N+]1(C)CCC(c2ccc(-c3ccc(C(F)(F)F)c(S(N)(=O)=O)c3-c3nn[nH]n3)cc2)C1 (stereo not shown)
0.00328
NS(=O)(=O)c1cccc(-c2ccc(CN[C@H]3COC[C@@H]3O)cc2)c1-c1nnn[nH]1
0.0521
CC(NCc1ccc(-c2cccc(S(N)(=O)=O)c2-c2nnn[nH]2)cc1)c1nn[nH]n1 (stereo not shown)
0.028
NS(=O)(=O)c1cccc(-c2snc3cccnc23)c1-c1nnn[nH]1
0.177
NS(=O)(=O)c1cccc(-c2ccc(CN3CC(O)C(F)C3)cc2)c1-c1nnn[nH]1 (stereo not shown)
0.0224
NS(=O)(=O)c1cccc(-c2ccc(CNCCn3ccnn3)cc2)c1-c1nnn[nH]1
0.0397
NS(=O)(=O)c1cccc(-c2cc3ccncc3s2)c1-c1nnn[nH]1
0.107
N=CN1CCC(N)(c2ccc(-c3ccc(C(F)(F)F)c(S(N)(=O)=O)c3-c3nn[nH]n3)cc2)CC1
0.00782
NS(=O)(=O)c1cccc(-c2ccc(CNCCn3nccn3)cc2)c1-c1nnn[nH]1
0.0516
Nc1cnc2cc(-c3cccc(S(N)(=O)=O)c3-c3nnn[nH]3)ccc2c1
0.0565

----------
- system.tested: VIM-1 (Pseudomonas aeruginosa (strain ATCC 15692 / DSM 22644 / CIP 104116 / JCM 14847 / LMG 12228 / 1C / PRS 101 / PAO1))
- experiment: Enzyme activity: determination of IC50, fluorescence assay with CCF2-FA substrate (VIM-1)
- Format: biochemical
- assay.conditions: fluorescence assay with CCF2-FA substrate; read-out: VIM-1 IC50
pIC50: −log10 of the molar value.
recorded.endpoint: pIC50

NC1CCC(N2CC(c3ccc(-c4ccc(C(F)(F)F)c(S(N)(=O)=O)c4-c4nnn[nH]4)cc3)C2)C1 (centres unmarked) [Example 808]
7.60
N#Cc1ccc2[nH]c(-c3cccc(S(N)(=O)=O)c3-c3nn[nH]n3)cc2c1 [Example 99]
6.98
NS(=O)(=O)c1cccc(-c2ccc(C(=O)N3CCOCC3)cc2)c1-c1nn[nH]n1 [Example 10]
6.01
NC1CCC(c2cccc(S(N)(=O)=O)c2-c2nn[nH]n2)CC1 (centres unmarked) [Example 168]
7.30
NS(=O)(=O)c1nccc(NCCC2CCCCC2)c1-c1nnn[nH]1 [Example 236]
6.73
CNC(=O)c1ccc(-c2cccc(S(N)(=O)=O)c2-c2nn[nH]n2)cc1 [Example 13]
6.65
NC(=O)c1ccc(-c2cccc(S(N)(=O)=O)c2-c2nn[nH]n2)cc1 [Example 15]
7.21
NS(=O)(=O)c1nccc(-c2ccc(C(=O)NC3CC3)cc2)c1-c1nnn[nH]1 [Example 185]
5.69
NS(=O)(=O)c1cccc(-c2ccc3ccncc3c2)c1-c1nn[nH]n1 [Example 71]
7.84
COc1ccc2cc(-c3cccc(S(N)(=O)=O)c3-c3nnn[nH]3)cnc2n1 [Example 138]
6.78
CC(C1CCN(c2ccnc(S(N)(=O)=O)c2-c2nnn[nH]2)CC1)N1CCOCC1 (centres unmarked) [Example 223]
6.23
NS(=O)(=O)c1nccc(NC2CCCCC2)c1-c1nnn[nH]1 [Example 234]
5.93
N=C(N)N1CCC(c2ccc(-c3cccc(S(N)(=O)=O)c3-c3nn[nH]n3)cc2)CC1 [Example 32]
7.11
NS(=O)(=O)c1cccc(-c2ccc(-c3nnn[nH]3)cc2)c1-c1nn[nH]n1 [Example 72]
7.65
NS(=O)(=O)c1c(C(F)(F)F)ccc(-c2ccc(C3CCN(C4CCNCC4)CC3)cc2)c1-c1nnn[nH]1 [Example 785]
7.91
NS(=O)(=O)c1nccc(-c2ccc3[nH]nc(C(F)(F)F)c3c2)c1-c1nn[nH]n1 [Example 209]
8.26
Nc1nccc(-c2cccc(-c3ccc(C(F)(F)F)c(S(N)(=O)=O)c3-c3nnn[nH]3)c2)n1 [Example 753]
9.12
NS(=O)(=O)c1cccc(-c2ccc(F)nc2)c1-c1nn[nH]n1 [Example 48]
6.74
CN(C)c1ccc(C(F)(F)F)c(S(N)(=O)=O)c1-c1nnn[nH]1 [Example 784]
7.81
CN(C)CCNC(=O)c1ccc(-c2cccc(S(N)(=O)=O)c2-c2nn[nH]n2)cc1 [Example 87]
5.68
NCC1CCC(N2CCC(c3ccc(-c4ccc(C(F)(F)F)c(S(N)(=O)=O)c4-c4nnn[nH]4)cc3)CC2)CC1 (centres unmarked) [Example 787]
8.09
NC(=O)c1ccc(-c2ccnc(S(N)(=O)=O)c2-c2nnn[nH]2)cc1 [Example 184]
6.79
NS(=O)(=O)c1cccc(C#CCN2CCS(=O)(=O)CC2)c1-c1nn[nH]n1 [Example 148]
5.51
Cc1ccccc1-c1ccnc(S(N)(=O)=O)c1-c1nn[nH]n1 [Example 210]
7.59
COc1ncc(-c2cccc(S(N)(=O)=O)c2-c2nn[nH]n2)cn1 [Example 91]
6.74
NS(=O)(=O)c1cccc(-c2ccc3c(c2)OCCO3)c1-c1nn[nH]n1 [Example 56]
7.36

----------
- system.tested: IMP-1 (Serratia marcescens, UniProt P52699)
- Sequence (P52699 whole entry, looked up): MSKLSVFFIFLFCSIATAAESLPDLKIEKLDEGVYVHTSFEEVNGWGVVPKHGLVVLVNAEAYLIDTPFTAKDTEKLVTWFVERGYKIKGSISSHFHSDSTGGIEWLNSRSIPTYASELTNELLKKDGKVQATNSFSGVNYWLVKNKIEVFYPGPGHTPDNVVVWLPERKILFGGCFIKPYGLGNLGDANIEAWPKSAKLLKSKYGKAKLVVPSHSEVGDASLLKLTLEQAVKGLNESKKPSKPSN
- experiment: biochemical
- Assay type: biochemical
- assay.conditions: fluorescence assay with CCF2-FA substrate; read-out: IMP-1 IC50
Each entry below lists one item and its recorded log10 IC50 value.
recorded.endpoint: log10 IC50 (log10 of the value in nM)

NS(=O)(=O)c1c(C(F)(F)F)ccc(-c2ccc(C3CN(CC4CCNCC4)C3)cc2)c1-c1nnn[nH]1
0.76
Cn1ccc(-c2cccc(S(N)(=O)=O)c2-c2nn[nH]n2)n1
3.20
Cc1ccc(Cc2cccc(S(N)(=O)=O)c2-c2nnn[nH]2)cc1
2.51
CC1C(=O)Nc2ccc(-c3cccc(S(N)(=O)=O)c3-c3nn[nH]n3)cc21 (centres unmarked)
2.19
NS(=O)(=O)c1cccc(-c2ccc3c(c2)OCCO3)c1-c1nn[nH]n1
1.12

----------
- system.tested: NDM-1 (Klebsiella pneumoniae)
- Sequence (C7C422 whole entry, looked up, species assumed): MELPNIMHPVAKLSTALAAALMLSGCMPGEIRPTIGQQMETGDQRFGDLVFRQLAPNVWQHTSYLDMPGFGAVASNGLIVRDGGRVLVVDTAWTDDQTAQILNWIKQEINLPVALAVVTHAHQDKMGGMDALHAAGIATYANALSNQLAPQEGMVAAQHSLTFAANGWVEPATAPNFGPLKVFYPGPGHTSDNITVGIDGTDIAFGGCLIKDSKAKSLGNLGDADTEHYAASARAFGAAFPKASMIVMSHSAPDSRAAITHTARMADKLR
- experiment: biochemical
- Assay type: biochemical
- assay.conditions: NDM-1 enzyme, CCF2-FA substrate; read-out: NDM-1 IC50
pIC50: −log10 of the molar value.
Each entry below lists one item and its recorded pIC50 value.
recorded.endpoint: pIC50

NS(=O)(=O)c1cccc(-c2ccc(NCC3CCN3)nc2)c1-c1nnn[nH]1 (stereo not drawn)
7.26
NC1CCC(N[C@H]2CC[C@H](c3ccc(C(F)(F)F)c(S(N)(=O)=O)c3-c3nnn[nH]3)CC2)C1 (stereo partly drawn) [Example 703]
8.21
CN(C)C1CCN(c2ccc(-c3cccc(S(N)(=O)=O)c3-c3nnn[nH]3)cn2)C1 (stereo not drawn)
7.48
NCCS(=O)(=O)c1ccc(-c2ccc(C(F)(F)F)c(S(N)(=O)=O)c2-c2nnn[nH]2)cc1
8.49
NS(=O)(=O)c1c(C(F)(F)F)ccc(C2CCCc3sc(C(=O)O)nc32)c1-c1nnn[nH]1 (stereo not drawn)
8.47
NC(=O)CN1CCC(Cc2ccc(-c3ccc(C4CNC4)cc3)c(-c3nn[nH]n3)c2S(N)(=O)=O)CC1
7.67

Reference for the values: patent US9708336B2
